Reported MTC by item:
test system: CHO-K1; experiment: Cytotoxicity against chinese hamster CHO-K1 cells assessed as decrease in cell viability measured after 48 hrs by ATPlite assay; format: toxicity, cell-based, Cricetulus griseus; conditions: cho-k1, 48 h
Give your result in µM as a bare value.

Q: Which value of MTC has been reported for COc1ccc(C(=O)Nc2ccc(N3CCC(C(N)=O)CC3)cc2C(=O)O)cc1 in the records?
Result: 22

Q: Which value of MTC has been reported for COc1ccc(C(=O)Nc2ccc(N3CCN(c4ccc(C(C)=O)cc4)CC3)cc2C(=O)O)cc1 in the records?
Result: 20

Q: Which value of MTC has been reported for COc1ccc(N2CCN(c3ccc(NC(=O)C4CCCCC4)cc3C#N)CC2)cc1 in the records?
Result: 17

Q: Which value of MTC has been reported for COc1ccc(C(=O)Nc2ccc(N3CCN(c4ccccc4)CC3)cc2C(=O)O)cc1 in the records?
Result: 17

Q: Which value of MTC has been reported for Cc1cccc(N2CCN(c3ccc(NC(=O)c4ccccc4Cl)c(C(=O)O)c3)CC2)c1C in the records?
Result: 26

Q: Which value of MTC has been reported for CCN(CC)C(=O)CN1CCN(c2ccc(NC(=O)c3ccc(OC)cc3)c(C(=O)O)c2)CC1 in the records?
Result: 28

====

system: CHO-K1; assay: Cytotoxicity against chinese hamster CHO-K1 cells assessed as decrease in cell viability measured after 48 hrs by ATPlite assay; format: toxicity, cell-based, Cricetulus griseus; conditions: cho-k1, 48 h
attributeMeasured: MTC

compound	attributeMeasured	valueReported
O=C(Nc1ccc(N2CCN(c3ccccc3F)CC2)c(C(=O)O)c1)c1ccc(Cl)cc1	MTC	> 40 µM
COc1ccc(C(=O)Nc2ccc(N3CCCN(c4ncccn4)CC3)cc2C(=O)O)cc1	MTC	> 40 µM
COc1ccc(C(=O)Nc2ccc(N3CCC(N4CCCCC4)CC3)cc2C(=O)O)cc1	MTC	> 40 µM
Cc1ccc(C)c(N2CCN(c3ccc(N4C(=O)CC(c5ccccc5)C4=O)cc3[N+](=O)[O-])CC2)c1 (centres undefined)	MTC	32 µM
COC(=O)c1cc(N2CCN(c3cc(Cl)ccc3C)CC2)ccc1NC(=O)c1ccc(OC)cc1	MTC	> 40 µM
Cc1ccccc1CN1CCN(c2ccc(NC(=O)C(C)(C)C)cc2)CC1	MTC	2 µM
Cc1ccccc1C(=O)Nc1ccc(N2CCN(c3cc(Cl)ccc3C)CC2)c(C(=O)O)c1	MTC	> 40 µM
COc1ccc(C(=O)Nc2ccc(N3CCN(c4cc(Cl)ccc4C)CC3)cc2C(=O)O)cc1	MTC	13 µM

The record that follows has no MTC shown yet.
Q: Find the measured MTC: item COc1ccccc1C(=O)Nc1ccc(N2CCN(C(=O)c3ccccn3)CC2)cc1C(=O)O , target or system CHO-K1.
Result: > 40 µM

The measured values listed here are drawn from ChEMBL document CHEMBL5150043.
